target: T1, human CD33 Fc fusion protein (human, UniProt P20138 18-259); test: RBC adhesion to plate-bound CD33-Fc; antibody 1.0 ug/ml;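 note: red blood cells adhering to plate-coated CD33-Fc after 1 h antibody pretreatment, then 1 h at room temperature, bound cells read as peroxidase activity after lysis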
T1 construct: also called hCD33-Fc; human CD33/Fc chimera (R&D Systems)
T1 sequence (P20138 18-259 limits assumed): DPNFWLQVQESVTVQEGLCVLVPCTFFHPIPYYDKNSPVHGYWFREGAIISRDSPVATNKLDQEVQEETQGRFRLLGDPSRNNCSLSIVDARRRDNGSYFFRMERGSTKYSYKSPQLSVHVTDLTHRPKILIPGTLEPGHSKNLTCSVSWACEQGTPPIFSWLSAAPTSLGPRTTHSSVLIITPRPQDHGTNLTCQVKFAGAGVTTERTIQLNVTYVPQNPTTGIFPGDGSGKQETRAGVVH
readout name: Percent RBC Binding to CD33 (%)
Unit % implied. Number only.

1) C-68 (antibody, V domains shown, human IgG1) VH: QVQLQESGPGLVKPSQTLSLTCTVSGGSISSGGYYWSWIRQHPGKGLEWIGNIYYSGSTYYNPSLKSRVTISVDTSKNQFSLKLSSVTAADTAVYYCARDLPNSGSPGSDYFDYWGQGTLVTVSS VL: EIVLTQSPGTLSLSPGERATLSCRASQSVSSSYLAWYQQKPGQAPRLLIYGASSRATGIPDRFSGSGSGTDFTLTISRLEPEDFAVYYCQQYDNYPPTFGGGTKVEIK: 10.1

Now take the following binder into account.
Input: Look up Percent RBC Binding to CD33: C-19 (antibody, V domains shown, human IgG1) VH: QLQLQESGPGLVKPSETLSLTCTVSGGSISSSSYAWGWIRQPPGKGLEWIGSIYYSGSTYYNPSLKSRVTISVDTSKNQFSLKLSSVTAADTAVYYCARVGYTRPYGMDVWGQGTTVTVSS VL: DIQMTQSPSSVSASVGDRVTITCRASQGISSWLAWYQQKPGKAPKLLIYAASSLQSGVPSRFSGSGSGTDFTLTISSLQPEDFATYYCQQINAHPTFGGGTKVEIK
Output: 14.3

Taken from patent US20220281976A1.
